Target: hCA XII (Homo sapiens)
Construct: made in house
Sequence (O43570 25-354): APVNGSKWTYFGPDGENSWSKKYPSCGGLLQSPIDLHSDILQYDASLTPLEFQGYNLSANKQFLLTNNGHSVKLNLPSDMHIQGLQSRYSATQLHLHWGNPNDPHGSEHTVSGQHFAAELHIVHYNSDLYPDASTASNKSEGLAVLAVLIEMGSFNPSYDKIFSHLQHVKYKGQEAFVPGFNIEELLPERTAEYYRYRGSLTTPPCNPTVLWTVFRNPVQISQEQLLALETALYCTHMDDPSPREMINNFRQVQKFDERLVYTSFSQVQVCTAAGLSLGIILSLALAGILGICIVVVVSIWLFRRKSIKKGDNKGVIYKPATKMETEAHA
Assay: CA-catalysed CO2 hydration stopped-flow inhibition assay, hCA XII
Format: biochemical
Conditions: Table 1, sulfamates 3
pKi: −log10 of the molar value.
measurement_type: pKi

a. CN1CCN(CCNC(=O)Nc2ccc(OS(N)(=O)=O)cc2)CC1
b. NS(=O)(=O)Oc1ccc(NC(=O)NC23CC4CC(CC(C4)C2)C3)cc1 [Compound 3u, 4-[(1-adamantyl)ureido]phenyl sulfamate]
*Q* Hi! Which is lower in terms of pKi, the first one a or the second one b ? To answer, give the label that identifies your chosen option.
*A* b
(b: 7.34, a: 7.92)

---

Target: hCA XII (Homo sapiens)
Construct: made in house
Assay: CA-catalysed CO2 hydration stopped-flow inhibition assay, hCA XII
Assay type: biochemical
Conditions: Table 2, sulfamides 7 and 8
measurement_type: Ki (nM)

Solved cases (2 shown):
NS(=O)(=O)Nc1ccc(CNC(=O)Nc2ccc(F)cc2)cc1
8
NS(=O)(=O)Nc1ccc(CNC(=O)Nc2ccccc2Cl)cc1
12

a. NS(=O)(=O)Nc1ccc(NC(=O)Nc2ccc(Cc3ccccc3)cc2)cc1
b. NS(=O)(=O)Nc1ccc(NC(=O)Nc2ccccc2-c2ccccc2)cc1
c. NS(=O)(=O)Nc1ccc(NC(=O)NCc2ccco2)cc1
d. COc1ccc(OC)c(NC(=O)Nc2ccc(NS(N)(=O)=O)cc2)c1
e. NS(=O)(=O)Nc1ccc(CNC(=O)Nc2ccc(Cc3ccccc3)cc2)cc1
*Q* Order the records, beginning with the lowest Ki and ending with the highest. Put the labels in the order asked and list them.
*A* e, a, c, d, b

1. NS(=O)(=O)Nc1ccc(CNC(=O)Nc2ccccc2)cc1
2. NS(=O)(=O)Nc1ccc(NC(=O)NC2CCCCC2)cc1
*Q* Returns: the argument ( 1 or 2 ) having the larger Ki. Which one? Tell me its label.
*A* 2
